Measured values drawn from ChEMBL document CHEMBL1275452 for this set.

# System: Aspergillus fumigatus
# ASSAY_INFO: Antimicrobial activity against azole-resistant Aspergillus fumigatus harboring G54V, G54E, G54R and G54W mutation in cyp51A gene after 48 hrs by microdilution method
# Assay type: functional
Answer each item with its documented MIC.
Answers are plain numbers, in µg/mL.

Worked set:
What value of MIC has been recorded for this entry: CC[C@@H]([C@H](C)O)n1ncn(-c2ccc(N3CCN(c4ccc(OC[C@@H]5CO[C@@](Cn6cncn6)(c6ccc(F)cc6F)C5)cc4)CC3)cc2)c1=O [POSACONAZOLE]
1.6

Report MIC for C[C@@H](c1ncncc1F)[C@](O)(Cn1cncn1)c1ccc(F)cc1F [VORICONAZOLE] please.
0.42

Fill in: MIC of CCC(C)n1ncn(-c2ccc(N3CCN(c4ccc(OCC5COC(Cn6cncn6)(c6ccc(Cl)cc6Cl)O5)cc4)CC3)cc2)c1=O (centres undefined) [ITRACONAZOLE] is ___
16

Continuing:
Query (compound): C[C@@H](c1nc(-c2ccc(C#N)cc2)cs1)[C@](O)(Cn1cncn1)c1ccc(F)cc1F [RAVUCONAZOLE] ; field requested: MIC
0.32
